assay: 1 mg/kg was administered intravenously in anesthetized rats and the concentration in plasma was determined after 2 minutes.; conditions: rat, iv
Measured endpoint: concentration at 2 min (ng/mL)
One number for each entry, in ng/mL.

Incoming: Field request: concentration at 2 min | item: "CC(=O)N1CCN(C(=O)[C@@H](Cc2cccc(C(=N)N)c2)NS(=O)(=O)c2ccc3ccccc3c2)CC1"
Outgoing: 3550

----------
Target: Serine protease 1 (Bos taurus, UniProt P00760)
Sequence (P00760 whole entry): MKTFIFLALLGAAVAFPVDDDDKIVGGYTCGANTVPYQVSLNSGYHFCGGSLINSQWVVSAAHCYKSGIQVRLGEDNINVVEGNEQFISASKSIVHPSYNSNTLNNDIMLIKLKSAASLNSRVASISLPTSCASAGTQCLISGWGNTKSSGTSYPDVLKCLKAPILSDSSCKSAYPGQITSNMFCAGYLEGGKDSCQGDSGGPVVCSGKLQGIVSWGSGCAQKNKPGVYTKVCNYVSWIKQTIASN
Measured endpoint: pKi
Numbers only, as −log10 of the molar value.

Look over these answered cases.
N=C(N)c1cccc(C[C@H](NS(=O)(=O)c2ccc3ccccc3c2)C(=O)N2CCN(C=O)CC2)c1 | 4.95
CN(C)C(=O)N1CCN(C(=O)C(Cc2cccc(C(=N)N)c2)NS(=O)(=O)c2ccc3ccccc3c2)CC1 (stereo not drawn) | 6.77

Here are 4 compounds. What values of pKi were reported for them?
1. CC(=O)N1CCN(C(=O)[C@H](Cc2cccc(C(=N)N)c2)NS(=O)(=O)c2ccc3ccccc3c2)CC1
2. CS(=O)(=O)N1CCN(C(=O)[C@@H](Cc2cccc(C(=N)N)c2)NS(=O)(=O)c2ccc3ccccc3c2)CC1
3. N=C(N)c1cccc(C[C@H](NS(=O)(=O)c2ccc3ccccc3c2)C(=O)N2CCN(CCO)CC2)c1
4. Cc1ccc(S(=O)(=O)N2CCN(C(=O)C(Cc3cccc(C(=N)N)c3)NS(=O)(=O)c3ccc4ccccc4c3)CC2)cc1 (stereo not drawn)

Outgoing:
4.77
7.17
4.41
6.66

Count: 2. Required value per item: pKi.
1. N=C(N)c1cccc(CC(NS(=O)(=O)c2ccc3ccccc3c2)C(=O)N2CCN(C(=O)Oc3ccccc3)CC2)c1 (stereo not drawn)
2. CN1CCN(C(=O)[C@@H](Cc2cccc(C(=N)N)c2)NS(=O)(=O)c2ccc3ccccc3c2)CC1

Outgoing:
7.55
6.33

Values from ChEMBL document CHEMBL1130155
